Data origin: the supplement of paper PMC10567573

// reported protein stability index per item
B1: TRAF3IP2 (parent)
chain: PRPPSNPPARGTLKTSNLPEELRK

Variants of: B1
assay remarks: protein stability index of a GFP-peptide fusion (GPS, HEK-293T) (PSI 1-6); higher = more stable;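 also: lentivirally expressed fusions sorted by FACS into six bins by GFP to DsRed ratio, PSI derived from sequencing read proportions per bin multiplied by bin number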
protocol conditions: c terminus: a fixed tail appended
Lab note: record the figure alone, no unit after it.

The examples below pair each entry with its known result.
Please give the measured protein stability index for this variant: T15E
4.94

Please give the measured protein stability index for this variant: P8Y
4.69

Please give the measured protein stability index for this variant: T12H
4.75

Please give the measured protein stability index for this variant: L18H
4.8

Next:
Please give the measured protein stability index for this variant: T15G
4.95

Please give the measured protein stability index for this variant: R23S
5.16

Please give the measured protein stability index for this variant: T15P
4.64

Please give the measured protein stability index for this variant: P8C
4.48

Please give the measured protein stability index for this variant: T12Q
4.52
